test system: Blood; assay: Biodistribution in ICR mouse blood at 5 to 10 uCi, iv after 2 mins; assay type: ADME, organism-based; conditions: in vivo
measurement_name: Drug uptake (% ID/g)

[[record]]
smi = "CN(C)c1ccc(/C=C/c2cnc(OCCO)c([125I])c2)cc1"
measurement_name = "Drug uptake"
readout_value = 2.71

[[record]]
smi = "CN(C)c1ccc(/C=C/c2cnc(OCCOCCOCCF)c([125I])c2)cc1"
measurement_name = "Drug uptake"
readout_value = 2.7

[[record]]
smi = "OCCOc1ncc(/C=C/c2ccc(O)cc2)cc1[125I]"
measurement_name = "Drug uptake"
readout_value = 10.1

[[record]]
smi = "CNc1ccc(/C=C/c2cnc(OCCOCCOCCF)c([125I])c2)cc1"
measurement_name = "Drug uptake"
readout_value = 4.37

[[record]]
smi = "CNc1ccc(/C=C/c2cnc(OCCO)c([125I])c2)cc1"
measurement_name = "Drug uptake"
readout_value = 4.14

